Items are presented alongside their recorded Urea nitrogen.
# System: mice
# experiment notes: Kidney Toxicity Determined by Blood Examination (1)
# Format: in vivo
# test settings: mouse serum, 160 mg/kg

compound	system tested	Urea nitrogen, mg/dL
O=C(O)c1cc(C(=O)O)c2c(n1)c1ncoc1c1cc(C(=O)O)[nH]c12 [OPQ]	mice	27
O=C(O)c1cc(C(=O)O)c2c(n1)c1nc(Cc3ccccc3)oc1c1cc(C(=O)O)[nH]c12 [Benzyl OPQ, benzyl OPQ]	mice	26
C=CCOC(=O)c1cc(C(=O)OCC=C)c2c(n1)C(=O)C(=O)c1cc(C(=O)OCC=C)[nH]c1-2 [PQQ triallyl ester]	mice	10
CSCCc1nc2c3nc(C(=O)O)cc(C(=O)O)c3c3[nH]c(C(=O)O)cc3c2o1 [2-Methylthioethyl OPQ, 2-methylthioethyl OPQ (R= CH2 CH2 SCH3)]	mice	26
CCC(C)c1nc2c3nc(C(=O)O)cc(C(=O)O)c3c3[nH]c(C(=O)O)cc3c2o1 (centres unmarked) [1-Methylpropyl OPQ, 1-methylpropyl OPQ (R=CH(CH3)CH2 CH3)]	mice	27

---

Documented Judgement 1 (No haze was seen in crystal lens), eggs across a set of compounds
# Tested on: Hydrocortisone-Induced Cataract of Hen's Eggs
# experiment notes: Effect on hydrocortisone-induced cataract of hen's eggs
# Assay type: in vivo, white leghorn (hen's eggs)
# test settings: 1 μmole at 3, 10 and 20 h after hydrocortisone; lens at 48 h
property label: Judgement 1 (No haze was seen in crystal lens), eggs

compound	assay value
COC(=O)c1cc(C(=O)OC)c2c(n1)C(=O)C(=O)c1cc(C(=O)OC)[nH]c1-2	1/5
O=C(O)c1cc(C(=O)O)c2c(n1)C(=O)C(=O)c1cc(C(=O)O)[nH]c1-2 [PQQ.2Na, reference compound]	1/5
Cc1nc2c3nc(C(=O)O)cc(C(=O)O)c3c3[nH]c(C(=O)O)cc3c2o1 [Methyl OPQ, methyl OPQ (R=CH3)]	1/5
C=CCOC(=O)c1cc(C(=O)OCC=C)c2c(n1)C(=O)C(=O)c1cc(C(=O)OCC=C)[nH]c1-2	2/5

---

# Urea nitrogen per record follows
# Tested on: mice
# experiment notes: Kidney Toxicity Determined by Blood Examination (1)
# Type: in vivo
# test settings: mouse serum, 80 mg/kg
property label: Urea nitrogen (mg/dL)

compound	assay value
O=C(O)c1cc(C(=O)O)c2c(n1)c1ncoc1c1cc(C(=O)O)[nH]c12 [OPQ]	23
O=C(O)c1cc(C(=O)O)c2c(n1)c1nc(Cc3ccccc3)oc1c1cc(C(=O)O)[nH]c12 [Benzyl OPQ, benzyl OPQ]	23
CCC(C)c1nc2c3nc(C(=O)O)cc(C(=O)O)c3c3[nH]c(C(=O)O)cc3c2o1 (stereo not shown) [1-Methylpropyl OPQ, 1-methylpropyl OPQ (R=CH(CH3)CH2 CH3)]	22
CSCCc1nc2c3nc(C(=O)O)cc(C(=O)O)c3c3[nH]c(C(=O)O)cc3c2o1 [2-Methylthioethyl OPQ, 2-methylthioethyl OPQ (R= CH2 CH2 SCH3)]	26

---

Documented Glucose across a set of compounds
# Test system: mice
# experiment notes: Kidney Toxicity Determined by Blood Examination (1)
# Assay type: in vivo
# test settings: mouse serum, 80 mg/kg
# Experimental: After lapse of one day from the administration, the mice were fasted (with feeding only water) and then after 18 hours, blood was collected and serum was obtained therefrom. Glucose, urea nitrogen and creatinine in the serum were examined by clinical examination reagent (trademark: FUJI DRYCHEMSLIDE manufactured by Fuji Photo Film Co., Ltd.).
property label: Glucose (mg/dL)

compound	assay value
CSCCc1nc2c3nc(C(=O)O)cc(C(=O)O)c3c3[nH]c(C(=O)O)cc3c2o1 [2-Methylthioethyl OPQ, 2-methylthioethyl OPQ (R= CH2 CH2 SCH3)]	88
O=C(O)c1cc(C(=O)O)c2c(n1)c1nc(Cc3ccccc3)oc1c1cc(C(=O)O)[nH]c12 [Benzyl OPQ, benzyl OPQ]	87
O=C(O)c1cc(C(=O)O)c2c(n1)c1ncoc1c1cc(C(=O)O)[nH]c12 [OPQ]	86
CCC(C)c1nc2c3nc(C(=O)O)cc(C(=O)O)c3c3[nH]c(C(=O)O)cc3c2o1 (stereo not shown) [1-Methylpropyl OPQ, 1-methylpropyl OPQ (R=CH(CH3)CH2 CH3)]	104

---

# Tested on: mice
# experiment notes: Kidney Toxicity Determined by Blood Examination (1)
# Format: in vivo
# test settings: mouse serum, 40 mg/kg
Listing of entries alongside the reported Urea nitrogen.
property label: Urea nitrogen (mg/dL)

compound	property label	reading unit	assay value
O=C(O)c1cc(C(=O)O)c2c(n1)c1ncoc1c1cc(C(=O)O)[nH]c12	Urea nitrogen	mg/dL	25
O=C(O)c1cc(C(=O)O)c2c(n1)c1nc(Cc3ccccc3)oc1c1cc(C(=O)O)[nH]c12	Urea nitrogen	mg/dL	23
C=CCOC(=O)c1cc(C(=O)OCC=C)c2c(n1)C(=O)C(=O)c1cc(C(=O)OCC=C)[nH]c1-2	Urea nitrogen	mg/dL	11
CCC(C)c1nc2c3nc(C(=O)O)cc(C(=O)O)c3c3[nH]c(C(=O)O)cc3c2o1 (centres unmarked) [1-Methylpropyl OPQ, 1-methylpropyl OPQ (R=CH(CH3)CH2 CH3)]	Urea nitrogen	mg/dL	26
CSCCc1nc2c3nc(C(=O)O)cc(C(=O)O)c3c3[nH]c(C(=O)O)cc3c2o1 [2-Methylthioethyl OPQ, 2-methylthioethyl OPQ (R= CH2 CH2 SCH3)]	Urea nitrogen	mg/dL	26

---

# experiment notes: Superoxide scavenging activity (hypoxanthine-xanthine oxidase, DMPO spin trapping, ESR)
# Assay type: biochemical
# test settings: Example 1, Table 6; pH 7.3; read-out: O2^- scavenging activity IC50

compound	reading unit	IC50
C=CCOC(=O)c1cc(C(=O)OCC=C)c2c(n1)C(=O)C(=O)c1cc(C(=O)OCC=C)[nH]c1-2	nM	12.4
O=C(OCc1ccccc1)c1cc(C(=O)OCc2ccccc2)c2c(n1)C(=O)C(=O)c1cc(C(=O)OCc3ccccc3)[nH]c1-2	nM	76.9
COC(=O)c1cc(C(=O)OC)c2c(n1)C(=O)C(=O)c1cc(C(=O)OC)[nH]c1-2	nM	18.5
O=C(O)c1cc(C(=O)O)c2c(n1)C(=O)C(=O)c1cc(C(=O)O)[nH]c1-2 [PQQ.2Na, reference compound]	nM	38.3

---

# Test system: mice
# experiment notes: Kidney Toxicity Determined by Blood Examination (1)
# Assay type: in vivo
# test settings: mouse serum, 160 mg/kg
In this section we review reported Glucose values for a set of compounds.

compound	Glucose [mg/dL]
CCC(C)c1nc2c3nc(C(=O)O)cc(C(=O)O)c3c3[nH]c(C(=O)O)cc3c2o1 (centres unmarked) [1-Methylpropyl OPQ, 1-methylpropyl OPQ (R=CH(CH3)CH2 CH3)]	87
CSCCc1nc2c3nc(C(=O)O)cc(C(=O)O)c3c3[nH]c(C(=O)O)cc3c2o1 [2-Methylthioethyl OPQ, 2-methylthioethyl OPQ (R= CH2 CH2 SCH3)]	97
O=C(O)c1cc(C(=O)O)c2c(n1)c1ncoc1c1cc(C(=O)O)[nH]c12	90
O=C(O)c1cc(C(=O)O)c2c(n1)c1nc(Cc3ccccc3)oc1c1cc(C(=O)O)[nH]c12	87
C=CCOC(=O)c1cc(C(=O)OCC=C)c2c(n1)C(=O)C(=O)c1cc(C(=O)OCC=C)[nH]c1-2	59

---

# test settings: bovine, not told, 960 min
property label: Membrane permeation constant

molecule	assay value
COC(=O)c1cc(C(=O)OC)c2c(n1)C(=O)C(=O)c1cc(C(=O)OC)[nH]c1-2	1.41 ± 0.48 10 ^-7 cm^2 · sec^-1
CCOC(=O)c1cc(C(=O)OCC)c2c(n1)C(=O)C(=O)c1cc(C(=O)OCC)[nH]c1-2	1.22 ± 0.37 10 ^-7 cm^2 · sec^-1
O=C(O)c1cc(C(=O)O)c2c(n1)C(=O)C(=O)c1cc(C(=O)O)[nH]c1-2 [PQQ.2Na, reference compound]	0.68 ± 0.36 10 ^-7 cm^2 · sec^-1
C=CCOC(=O)c1cc(C(=O)OCC=C)c2c(n1)C(=O)C(=O)c1cc(C(=O)OCC=C)[nH]c1-2	2.42 ± 0.60 10 ^-7 cm^2 · sec^-1

---

# Test system: Hydrocortisone-Induced Cataract of Hen's Eggs
# experiment notes: Effect on hydrocortisone-induced cataract of hen's eggs
# Format: in vivo, white leghorn (hen's eggs)
# test settings: 1 μmole at 3, 10 and 20 h after hydrocortisone; lens at 48 h
property label: Judgement 3 (Clear ring of white haze was seen in crystal lens), eggs

compound	assay value
O=C(O)c1cc(C(=O)O)c2c(n1)c1ncoc1c1cc(C(=O)O)[nH]c12	1/5
Cc1nc2c3nc(C(=O)O)cc(C(=O)O)c3c3[nH]c(C(=O)O)cc3c2o1 [Methyl OPQ, methyl OPQ (R=CH3)]	2/5
COC(=O)c1cc(C(=O)OC)c2c(n1)C(=O)C(=O)c1cc(C(=O)OC)[nH]c1-2	1/5
C=CCOC(=O)c1cc(C(=O)OCC=C)c2c(n1)C(=O)C(=O)c1cc(C(=O)OCC=C)[nH]c1-2	1/5
